Hello, the source for this data is ChEMBL document CHEMBL4251595, in case you need it.

Overview of reported zone of inhibition at 75 µg/disc across a group of compounds:
tested on: Staphylococcus aureus; test: Antimicrobial activity against Staphylococcus aureus assessed as zone of inhibition at 75 ug/well after 24 hrs by agar well diffusion method; assay type: functional; conditions: read-out: DIZ
endpoint name: zone of inhibition at 75 µg/disc (mm)

[
  {
    "compound smiles": "O=C(NS(=O)(=O)c1c(-c2ccccc2)nn(-c2ccccc2)c1-c1ccc([N+](=O)[O-])cc1)c1cccs1",
    "study target": "Staphylococcus aureus",
    "endpoint name": "zone of inhibition at 75 µg/disc",
    "measurement unit": "mm",
    "test result": 26
  },
  {
    "compound smiles": "O=C(NS(=O)(=O)c1c(-c2ccccc2)noc1-c1ccccc1)c1cccs1",
    "study target": "Staphylococcus aureus",
    "endpoint name": "zone of inhibition at 75 µg/disc",
    "measurement unit": "mm",
    "test result": 21
  },
  {
    "compound smiles": "O=C(NS(=O)(=O)c1c(-c2ccccc2)noc1-c1ccccc1)c1ccc(Cl)s1",
    "study target": "Staphylococcus aureus",
    "endpoint name": "zone of inhibition at 75 µg/disc",
    "measurement unit": "mm",
    "test result": 26
  }
]

====

Overview of reported zone of inhibition at 100 µg/disc across a group of molecules:
system: Klebsiella pneumoniae; assay: Antimicrobial activity against Klebsiella pneumoniae assessed as zone of inhibition at 100 ug/well after 24 hrs by agar well diffusion method; type: functional; conditions: read-out: DIZ

[
  {
    "molecule": "O=C(NS(=O)(=O)C1C(c2ccccc2)=NOC1c1ccc([N+](=O)[O-])cc1)c1ccc(Cl)s1 (stereo not drawn)",
    "zone of inhibition at 100 µg/disc / mm": 13
  },
  {
    "molecule": "O=C(NS(=O)(=O)c1c(-c2ccccc2)noc1-c1ccccc1)c1ccc(Cl)s1",
    "zone of inhibition at 100 µg/disc / mm": 32
  },
  {
    "molecule": "O=C(NS(=O)(=O)c1c(-c2ccccc2)nn(-c2ccccc2)c1-c1ccccc1)c1ccc(Cl)s1",
    "zone of inhibition at 100 µg/disc / mm": 27
  },
  {
    "molecule": "O=C(NS(=O)(=O)C1C(c2ccccc2)=NN(c2ccccc2)C1c1ccc([N+](=O)[O-])cc1)c1cccs1 (stereo not drawn)",
    "zone of inhibition at 100 µg/disc / mm": 13
  },
  {
    "molecule": "O=C(NS(=O)(=O)c1c(-c2ccccc2)noc1-c1ccc([N+](=O)[O-])cc1)c1cccs1",
    "zone of inhibition at 100 µg/disc / mm": 36
  },
  {
    "molecule": "Cc1ccc(-c2c(S(=O)(=O)NC(=O)c3ccc(Cl)s3)c(-c3ccccc3)nn2-c2ccccc2)cc1",
    "zone of inhibition at 100 µg/disc / mm": 20
  },
  {
    "molecule": "Cc1ccc(-c2onc(-c3ccccc3)c2S(=O)(=O)NC(=O)c2ccc(Cl)s2)cc1",
    "zone of inhibition at 100 µg/disc / mm": 24
  },
  {
    "molecule": "O=C(NS(=O)(=O)C1C(c2ccccc2)=NOC1c1ccc([N+](=O)[O-])cc1)c1cccs1 (stereo not drawn)",
    "zone of inhibition at 100 µg/disc / mm": 11
  }
]
